molecular target: HSA (Homo sapiens, UniProt P02768)
assay-metric: Kd (µM)
Answers are plain numbers, in µM.

- molecule: "SABA4: SABA core with a scaffold mutation; same BC, DE, FG loops as SABA5; in Table 5 stands for SABA4.1 (protein) EMVAATPTSLLISWEDDSYYSRYYRITYGETGGNSPVQEFTVPSDLYTATISGLKPGVDYTITVYAVTYDVTDLIMHEPISINYRT"
  value-measured: 0.412
- molecule: "SABA2: SABA core sequence from PROfusion; in Table 5 stands for SABA2.1 (protein) EVVAATPTSLLISWPKYDKTGHYYRITYGETGGNSPVQEFTVPTRQTTATISGLKPGVDYTITVYAVSKDDYYPHEHRPISINYRT"
  value-measured: 0.0338
- molecule: "SABA3: SABA core sequence from PROfusion; in Table 5 stands for SABA3.1 (protein) EVVAATPTSLLISWSNDGPGLSYYRITYGETGGNSPVQEFTVPSSQTTATISGLKPGVDYTITVYAVSYYTKKAYSAGPISINYRT"
  value-measured: 0.863

Let's switch to this molecule now.
// Kd lookup, molecule = SABA1: serum albumin binding 10Fn3 core sequence, SEQ ID NO: 4; in Table 5 stands for SABA1.1 (protein) EVVAATPTSLLISWHSYYEQNSYYRITYGETGGNSPVQEFTVPYSQTTATISGLKPGVDYTITVYAVYGSKYYYPISINYRT , result: 0.0472
